- assayed system: HLA-A*11:01
- assay summary: IEDB peptide-MHC binding, purified MHC/direct/fluorescence; filed as Kd, often an IC50 or EC50 that approximates it; bounds were set here for any values at or beyond the usual limits of such assays
- condition notes: source organism: Cryptosporidium parvum
readout kind: Kd (nM)
One number for each entry, in nM.

## Input For IINAHRIPK , what is its reported Kd?
## Output 26.7

* * *

- assayed system: HLA-A*26:01
- assay summary: IEDB peptide-MHC binding, purified MHC/direct/fluorescence; filed as Kd, often an IC50 or EC50 that approximates it; bounds were set here for any values at or beyond the usual limits of such assays
- condition notes: source organism: Cryptosporidium parvum Iowa II
readout kind: Kd

## Input Could you share which Kd value was measured for IINAHRIPK ?
## Output ≥ 20 µM

Data provenance is the Immune Epitope Database (IEDB).
